- ASSAY_PROCEDURE: in vitro
- CONDITION: male, Sprague-Dawley, rat, s9, Half-life, calculated value in parentheses

>  <COMPOUND>
CCCCCCCCCCCCCCCC(=O)NCCOC(=O)CCC(=O)OC(CO)CO [Compound I-8]

>  <half-life at 1 μM, min>
3.9

$$$$
>  <COMPOUND>
CCCCCCCCCCCCCCCC(=O)NCCOC(=O)CCC(=O)OC(COC(=O)CCC)COC(=O)CCC [Compound I-16]

>  <half-life at 1 μM, min>
2

$$$$

###

- ASSAY_PROCEDURE: in vitro
- CONDITION: male, Sprague-Dawley, rat, microsomes, 20 min, 1 μM

>  <COMPOUND>
CCCCCCCCCCCCCCCC(=O)NCCOC(=O)CCC(=O)OCC(O)CO (stereo not shown)

>  <READING_QUALIFIER>
<

>  <% Remaining of Initial, 20 min (%)>
1.0

$$$$
>  <COMPOUND>
CCCCCCCCCCCCCCCC(=O)NCCOC(=O)CCC

>  <READING_QUALIFIER>
<

>  <% Remaining of Initial, 20 min (%)>
1.0

$$$$
>  <COMPOUND>
CCCCC/C=C\C/C=C\CCCCCCCC(=O)OCCNC(=O)CCCCCCCCCCCCCCC

>  <READING_QUALIFIER>
=

>  <% Remaining of Initial, 20 min (%)>
67

$$$$
>  <COMPOUND>
CCCCCCCCCCCCCCCC(=O)NCCOC(=O)CCC(=O)OC[C@H]1O[C@@](CO)(O[C@H]2O[C@H](CO)[C@@H](O)[C@H](O)[C@H]2O)[C@@H](O)[C@@H]1O

>  <READING_QUALIFIER>
=

>  <% Remaining of Initial, 20 min (%)>
17

$$$$
